Origin of the recorded values: patent US20050256210A1

This section presents molecules with their documented Emax values.
Molecular target: Estrogen receptor beta (ERβ) (Homo sapiens)
Construct: expressed in transfected cells; host or cells: NIH3T3
Sequence (Q92731 whole entry): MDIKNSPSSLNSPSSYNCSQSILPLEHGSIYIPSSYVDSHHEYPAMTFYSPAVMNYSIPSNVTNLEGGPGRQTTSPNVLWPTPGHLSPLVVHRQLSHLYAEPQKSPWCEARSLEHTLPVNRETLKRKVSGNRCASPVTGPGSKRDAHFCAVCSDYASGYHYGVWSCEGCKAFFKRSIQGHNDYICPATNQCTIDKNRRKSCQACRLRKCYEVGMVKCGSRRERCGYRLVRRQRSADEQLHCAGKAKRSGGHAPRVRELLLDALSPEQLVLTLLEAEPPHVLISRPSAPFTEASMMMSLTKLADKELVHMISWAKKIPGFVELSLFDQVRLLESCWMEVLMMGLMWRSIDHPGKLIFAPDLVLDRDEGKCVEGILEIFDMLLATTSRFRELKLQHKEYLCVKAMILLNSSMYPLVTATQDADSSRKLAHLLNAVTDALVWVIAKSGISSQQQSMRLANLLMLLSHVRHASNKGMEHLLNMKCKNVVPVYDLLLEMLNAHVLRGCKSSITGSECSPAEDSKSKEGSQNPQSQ
Test: Receptor Selection and Amplification Technology (R-SAT) functional receptor assay, ERβ
Assay type: cell-based
Details: R-SAT, NIH3T3 cells; efficacy relative to the reference ligand Estrone; read-out: % Efficacy ERβ
The answer is to be given in %; state only the numeric part.

# count of solved cases: 4
[[record]]
molecule = "Oc1ccc(C2(c3ccc(F)cc3)CCCCCC2)cc1O"
tested_system = "Estrogen receptor beta (ERβ) (Homo sapiens)"
reported_endpoint = "Emax"
experimental_value = 87

[[record]]
molecule = "Oc1ccc(C2(c3ccc(F)cc3F)CCCCC2)cc1"
tested_system = "Estrogen receptor beta (ERβ) (Homo sapiens)"
reported_endpoint = "Emax"
experimental_value = 37

[[record]]
molecule = "CC(C)C1CCC(c2ccc(O)cc2)(c2cccc(F)c2)CC1 (stereo not drawn)"
tested_system = "Estrogen receptor beta (ERβ) (Homo sapiens)"
reported_endpoint = "Emax"
experimental_value = 48

[[record]]
molecule = "Oc1ccc(C2(c3ccccc3)CCCCCCC2)cc1"
tested_system = "Estrogen receptor beta (ERβ) (Homo sapiens)"
reported_endpoint = "Emax"
experimental_value = 46


Data point: Oc1ccc(C2(c3ccccc3)CCCCCC2)cc1 ; Emax = 41

Given item Oc1ccc(C2(c3ccccc3)CCC(C(F)(F)F)CC2)cc1 (stereo not drawn) , the value recorded as its Emax is 46
